system: NL 4-3; experiment: microbe, parasite or virus in culture; type: cell-based, HIV-1; details: AVE 1, NL 4-3, primer set 3
observable: EC50 (nM)
Answers are plain numbers, in nM.

Hey, can you go through the list below and give me EC50 for every item?
1. Cc1cc(C#N)cc(C)c1Oc1nc(Nc2ccc(C#N)cc2)nc(N)c1Br [Compound 2]
2. Cc1cc(C#N)cc(C)c1Oc1nc(Nc2ccc(C#N)cc2)nc(N)c1Br [Compound 1]

Reply text:
1. 2.6
2. 1

====

system: NL 4-3; assay: microbe, parasite or virus in culture; assay type: cell-based, HIV-1; settings: AVE 4, NL4-3, primer set 4
observable: pEC50
One number for each entry, as −log10 of the molar value.

// sample Cc1cc(C#N)cc(C)c1Oc1nc(Nc2ccc(C#N)cc2)nc(N)c1Br [Compound 2] , its pEC50 was 8.55

====

Answer each item with its documented pEC50.
system: NL 4-3; test: microbe, parasite or virus in culture; type: cell-based, HIV-1; conditions: Human immunodeficiency virus 1, AVE 1, NL 4-3, primer set 3
Answers are plain numbers, as −log10 of the molar value.

>>> test_value("CC(C)(C)NC(=O)[C@@H]1CN(Cc2cccnc2)CCN1C[C@@H](O)C[C@@H](Cc1ccccc1)C(=O)N[C@H]1c2ccccc2C[C@H]1O")
7.50
>>> test_value("CC(C)c1nc(CN(C)C(=O)N[C@H](C(=O)N[C@@H](Cc2ccccc2)C[C@H](O)[C@H](Cc2ccccc2)NC(=O)OCc2cncs2)C(C)C)cs1")
7.06

Hey, can you go through the list below and give me pEC50 for every item?
1. CC(C)CN(C[C@@H](O)[C@H](Cc1ccccc1)NC(=O)O[C@H]1CCOC1)S(=O)(=O)c1ccc(N)cc1
2. Cc1cn([C@H]2C[C@H](N=[N+]=[N-])[C@@H](CO)O2)c(=O)[nH]c1=O
3. CC(C)Oc1ccc(Cc2ccccc2)cc1C(=O)CC(=O)C(=O)O
4. Cc1ccnc2c1NC(=O)c1cccnc1N2C1CC1

Reply text:
7.30
6.84
6.76
7.01

// sample c1cc(CN2CCCNCCNCCCNCC2)ccc1CN1CCCNCCNCCCNCC1 , its pEC50 was 7.30

====

tested on: WT III B; experiment: microbe, parasite or virus in culture; format: cell-based, HIV-1; conditions: AVE 5, WT III B, primer set 4; fold change in EC50
observable: fold change

>>> test_value("CC(C)CN(C[C@@H](O)[C@H](Cc1ccccc1)NC(=O)O[C@H]1CO[C@H]2OCC[C@H]21)S(=O)(=O)c1ccc(N)cc1")
"0,9"
>>> test_value("Cc1cc(C#N)cc(C)c1Oc1nc(Nc2ccc(C#N)cc2)nc(N)c1Br [Compound 1]")
"1,2"
>>> test_value("O=c1[nH]cnc2c1ncn2[C@H]1CC[C@@H](CO)O1")
"1,6"

Now look at this entry.
Tested system WT III B; fold change recorded for Nc1ccn([C@@H]2CS[C@H](CO)O2)c(=O)n1 was 1,2

====

Answer each item with its documented EC50.
tested on: pHXB2D control; assay: Antiviral experiment with control clone, transfected directly without recombination; assay type: cell-based, HIV; details: AVE 6, pHXB2D control, no recombination
Numbers only, in nM.

>>> test_value("O=C(O)C1=CC(=C(c2ccc(O)c(C(=O)O)c2)c2ccc(O)c(C(=O)O)c2)C=CC1=O [ATA]")
2070
>>> test_value("Cc1cc(C#N)cc(C)c1Oc1nc(Nc2ccc(C#N)cc2)nc(N)c1Br [Compound 2]")
3.1

Hey, can you go through the list below and give me EC50 for every item?
1. Cc1cc(C#N)cc(C)c1Oc1nc(Nc2ccc(C#N)cc2)nc(N)c1Br [Compound 1]
2. CC(C)CN(C[C@@H](O)[C@H](Cc1ccccc1)NC(=O)O[C@H]1CO[C@H]2OCC[C@H]21)S(=O)(=O)c1ccc(N)cc1 [Compound 3]

Reply text:
[1, 7.1]

Hello, the source for this data is patent EP1285971B1, in case you need it.
